Consider the following molecules and their measured pIC50 readings.
tested on: MGC-803; experiment: Antiproliferative activity against human MGC803 cells after 72 hrs by MTT assay; type: functional, cell-based; details: MGC-803, 72 h
pIC50 here is simply -log10 of the concentration when that concentration is written in mol/L.

* O=C1OCC[C@@H]1NC(=S)SCCOc1ccccc1[N+](=O)[O-] | 4.33

Prompt: Entry under review: O=C(COc1ccc(C(=O)/C=C/c2cccc(Br)c2)cc1)N[C@H]1CCOC1=O . Reported pIC50?
Response: 4.93
